Hello, the source for this data is patent US20200369772A1, in case you need it.

Target: T1, human PD-L2 (full-length, on cells) (human, UniProt Q9BQ51 20-273)
T1 chain: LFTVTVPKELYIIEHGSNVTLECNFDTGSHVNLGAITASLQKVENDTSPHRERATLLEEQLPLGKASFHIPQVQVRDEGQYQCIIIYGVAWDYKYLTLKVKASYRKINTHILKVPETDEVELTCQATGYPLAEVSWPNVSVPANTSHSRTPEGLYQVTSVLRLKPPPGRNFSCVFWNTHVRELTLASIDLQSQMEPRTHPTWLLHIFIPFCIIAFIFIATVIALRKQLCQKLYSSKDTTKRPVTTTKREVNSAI
Assay: FACS, NCI-H226 cells
MEASURED QUANTITY: EC50 (pM)
All answers are understood in pM, so give the number only.

Example entries and their recorded answers appear below.
Q: // returns reported EC50 for input 11C11-H5 (antibody, V domains shown, Both formats under this entry) VH: QVQLVESGGGVVQPGRSLRLSCAASGFAFSAYGMHWVRQAPGKGLEWVAISWYDGSNNYHADSVKGRFTISRDSSKNTLYLQMNSLRAEDTAVYYCAKSIGVARHYYYGMDVWGQGTTVTVSS VL: SYELTQPPSVSVSPGQTASITCSGEELGDKYACWYQQKPGQSPVLVIYQDSKRPSGIPERFSGSNSGNAATLTISGTQAMDEADYYCQAWDSITVVFGGGTKLTVLG
Ans: 131

Q: // returns reported EC50 for input 1A1-C2 (antibody, V domains shown) VH: QVQLQESGPGLVKPSGTLSLTCAVSGGSIGSSYWWTWIRQSPGKGLEWIGEIFHSGPTNYTPSLKSRVTISVDKSKNQFSLQLRSVTAADTAVYYCARTTGTTGFYYGMDVWGQGTTVTVSS VL: EVVLTQSPATLYVTPGERVTLSCRASQSVSSNLAWYQQKPGQAPRLLIYGASTRATGIPARFSGSGSGTEFTLTISSLQSEDFAVYYCQQFNNWPRTFGLGTKVEIT
Ans: 254

Q: // returns reported EC50 for input 2C4-E4 (antibody, V domains shown, Both formats under this entry) VH: QVQLVQSGAEVKKPGASVKVSCKASGYTFTGYVMHWVRQAPGQRLEWMGWINADNGITKYSQKFQGRVTITRDTSASTAYMELTNLRSEDTAVYYCARATRGFGEFYFDYWGQGNLVTVSS VL: DIQMTQSPSTLSASVGDRVTITCRASQTISSWLAWYQQKPGKAPNLLIYKASSLESGVPSRFSGSGSGTEFTLTISSLQPDDFATYYCQQYYSYWTFGQGTKVEIK
Ans: 134

Q: // returns reported EC50 for input 19C3-B3 (antibody, V domains shown, Both formats under this entry; also called 19C3-C3) VH: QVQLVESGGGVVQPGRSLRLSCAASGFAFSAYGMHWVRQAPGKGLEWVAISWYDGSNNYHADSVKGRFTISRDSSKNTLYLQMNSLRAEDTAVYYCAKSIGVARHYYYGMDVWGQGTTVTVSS VL: SYELTQPPSVSVSPGQTASITCSGEELGDKYACWYQQKPGQSPLLVIYQDSKRPSGIPERFSGSNSGNAATLTISGTQAMDEADYYCQAWDSITVIFGGGTKLTVLG
Ans: 102

New cases:
Q: // returns reported EC50 for input 8B5-B1 (antibody, V domains shown, Both formats under this entry) VH: EVQLLESGGGLVQPGGSLKLSCAASGFTFSSYAMFWVRQAPGEGLAWVSAITGSGDHTYYADSVKDHFTISRDNSKNTLYLQMNSLKAEDTAVYYCAKDASGNSYGFPYWYFDLWGRGTLVTVSS VL: QSALTQPASVSGSPGQSITISCTGTSSDVAGYNFVSWYQHHPGKTPKLMIYDVTNRPSGVSTRFSGSKSGNTASLTISGLQAEDEADYYCSSFTSATTLVFGGGTKLTVLG
Ans: 1520
